System: LN‐18
ASSAY_OVERVIEW: cells
Type: cell-based
ASSAY_CONTEXT: Homo sapiens, LN-18, 144 h, read-out: Proliferation inhibition IC50 (mean ± SD)
MEASURED_PARAMETER: IC50 (nM)

> print(dat)
                           molecular.string  measured.parameter  measurement
1  CC(=O)c1c(C)c2cnc(Nc3ccc(N4CCNCC4)cn3)nc2n(C2CCCC2)c1=O                IC50          112
2  CCN1CCN(Cc2ccc(Nc3ncc(F)c(-c4cc(F)c5nc(C)n(C(C)C)c5c4)n3)nc2)CC1                IC50          244

====

ASSAY_OVERVIEW: in vivo
Parameters: species or system female BALB/c nude mice
ASSAY_CONTEXT: female, BALB/c nude, mouse, in vivo, 75 mg/kg
MEASURED_PARAMETER: Kp at 1.5 h

> print(dat)
                                   compound  measured.parameter  measurement
1  CCN1CCN(Cc2ccc(Nc3ncc(F)c(-c4cc(F)c5nc(C)n(C(C)C)c5c4)n3)nc2)CC1 [LY2835219, abemaciclib]         Kp at 1.5 h         0.26

====

ASSAY_OVERVIEW: in vivo
Parameters: species or system female BALB/c nude mice
ASSAY_CONTEXT: female, BALB/c nude, mouse, in vivo, 75 mg/kg
MEASURED_PARAMETER: Kp at 24 h

> print(dat)
                                   molecule  measured.parameter  measurement
1  CCN1CCN(Cc2ccc(Nc3ncc(F)c(-c4cc(F)c5nc(C)n(C(C)C)c5c4)n3)nc2)CC1 [LY2835219, abemaciclib]          Kp at 24 h         0.27

====

Test system: SW620
ASSAY_OVERVIEW: cells
Assay type: cell-based
ASSAY_CONTEXT: Homo sapiens, SW-620, 144 h, read-out: Proliferation inhibition IC50 (mean ± SD)
MEASURED_PARAMETER: IC50

> print(dat)
                           molecular.string  measured.parameter  measurement
1  CC(=O)c1c(C)c2cnc(Nc3ccc(N4CCNCC4)cn3)nc2n(C2CCCC2)c1=O                IC50       268 nM
2  CCN1CCN(Cc2ccc(Nc3ncc(F)c(-c4cc(F)c5nc(C)n(C(C)C)c5c4)n3)nc2)CC1                IC50       283 nM

====

Tested on: MCF‐7
ASSAY_OVERVIEW: cells
Type: cell-based
ASSAY_CONTEXT: Homo sapiens, MCF7, 144 h, read-out: Proliferation inhibition IC50 (mean ± SD)
MEASURED_PARAMETER: IC50 (nM)

> print(dat)
                                   compound  measured.parameter  measurement
1  CCN1CCN(Cc2ccc(Nc3ncc(F)c(-c4cc(F)c5nc(C)n(C(C)C)c5c4)n3)nc2)CC1 [LY2835219, abemaciclib]                IC50          218
